assayed target: T1, human IL-1β (human, UniProt P01584 117-269)
T1 construct: antigen of the ABT2 dAbs; also called hIL-1β; IL-1 beta
measurement protocol: IC50 column of Table 63; receptor binding assay presumed
Catalogue of binders with associated IC50
Express the result in nM but write the number alone.

binder: ABT2-65-118 (other, VH dAb) VH: EVQLLESGGGLVQPGGSLRLSCAASGFTFATYTMGWVRQAPGKGLEWVSSISAMGNRTYYADSVKGRFTISRDDSKNTLYLQMNSLRAEDTAVYYCAQNLVRLGRSRWMFDYWGQGTLVTVSS
IC50 (nM): 4.6

Recorded IC50 of ABT2-65-146 (other, VH dAb) VH: EVQLLESGGGLVQPGGSLRLSCAASGFTFEDYQMGWVRQAPGKGLEWVSSISAMGNRTYYADSVKGRFTISRDDSKNTLYLQMNSLRAEDTAVYYCAENLVRTMKRKWMFDYWGQGTLVTVSS , please.
6

Entry to check: ABT2-65-9 (other, VH dAb) VH: EVQLLESGGGLVHPGGSLRLSCAASGFTFRWYPMGWVRQAPGKGLEWVSSISAMGNRTYYADSVKGRFTISRDDSKNTLYLQMNSLRAEDTAVYYCAENLVRTQSKMWMFDYWGQGTLVTVSS
100

Entry to check: ABT2-65-115 (other, VH dAb) VH: EVQLLESGGGLVQPGGSLRLSCAASGFTFIDYQMGWVRQAPGKGLEWVSSISAMGNRTYYADSVKGRFTISRDDSKNTLYLQMNSLRAEDTAVYYCAQNLVRLGRSRWMFDYWGQGTLVTVSS
4
